FYI, the data here is from patent US9486455B2.

Field: pIC50. Provide a value for each of the compounds that follow.
# test.target: human (h) TRPV3 (Homo sapiens)
# Construct: expressed in transfected cells; host or cells: HEK293/TREx, tetracycline-induced
# Sequence (Q8NET8 whole entry): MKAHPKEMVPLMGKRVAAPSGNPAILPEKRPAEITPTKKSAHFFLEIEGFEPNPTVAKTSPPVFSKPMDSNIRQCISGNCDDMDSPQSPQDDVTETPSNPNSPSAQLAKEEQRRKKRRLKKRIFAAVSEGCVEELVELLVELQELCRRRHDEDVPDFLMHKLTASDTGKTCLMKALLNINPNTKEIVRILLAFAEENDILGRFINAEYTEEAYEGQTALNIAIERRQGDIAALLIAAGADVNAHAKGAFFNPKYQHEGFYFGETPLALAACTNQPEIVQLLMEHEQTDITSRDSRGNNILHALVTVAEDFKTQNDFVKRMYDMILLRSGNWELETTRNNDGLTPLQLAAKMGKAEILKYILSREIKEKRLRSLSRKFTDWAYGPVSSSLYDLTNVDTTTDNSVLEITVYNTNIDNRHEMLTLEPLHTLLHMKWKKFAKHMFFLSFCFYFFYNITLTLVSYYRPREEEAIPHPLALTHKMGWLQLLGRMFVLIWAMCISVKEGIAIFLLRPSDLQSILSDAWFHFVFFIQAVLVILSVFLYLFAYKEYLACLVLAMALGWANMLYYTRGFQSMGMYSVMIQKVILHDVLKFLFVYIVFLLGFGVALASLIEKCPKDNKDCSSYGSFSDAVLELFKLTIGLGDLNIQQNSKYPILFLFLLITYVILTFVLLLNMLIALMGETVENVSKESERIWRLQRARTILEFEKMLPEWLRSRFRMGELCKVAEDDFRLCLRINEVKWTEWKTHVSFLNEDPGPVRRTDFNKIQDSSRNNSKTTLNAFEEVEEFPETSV
# experimental.protocol: Whole-cell patch clamp, human TRPV3-mediated currents;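 note: compounds tested at concentrations up to 30 µM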
# Format: cell-based
# cond: Phase 1 inward current, read-out: P1 In (h)
pIC50: −log10 of the molar value.

Reported pIC50 for COc1cccc(C=Cc2nc3ccccc3c(=O)n2-c2c(C)cccc2C)c1OP(=O)(O)O : what is it?
≥ 6.30

Report pIC50 for Cc1cccc(C)c1-n1c(/C=C/c2cccc(OC(F)(F)F)c2O)nc2cnccc2c1=O please.
≥ 6.30

GET /values?readout=pIC50&item= COc1cccc(/C=C/c2nc3ccccc3c(=O)n2-c2c(F)cccc2F)c1O
≥ 6.30

What value of pIC50 has been recorded for this entry: COc1cccc(/C=C/c2nc3cnccc3c(=O)n2-c2c(C)cccc2Cl)c1O
≥ 6.30

Sample COc1cccc(/C=C/c2nc3ccccc3c(=O)n2-c2c(C)cc(OCCN(C)C)cc2C)c1O — what was its pIC50?
≥ 5.00

Looking for the measured pIC50 of COc1cccc(NC(=O)Nc2nc3ccccc3c(=O)n2-c2c(C)cccc2C)c1O , can you help?
≥ 5.30

Form field: reported pIC50 of CCOc1cccc(C=Cc2nc3ccccc3c(=O)n2-c2c(F)cccc2F)c1O
≥ 6.30

Record request: pIC50 value, item Cc1cccc(C)c1-n1c(/C=C/c2cccc3cn[nH]c23)nc2cnccc2c1=O
≥ 5.00
